# ASSAY_SYSTEM: Lysine-specific demethylase 4C (Homo sapiens)
# Sequence (Q9H3R0 whole entry): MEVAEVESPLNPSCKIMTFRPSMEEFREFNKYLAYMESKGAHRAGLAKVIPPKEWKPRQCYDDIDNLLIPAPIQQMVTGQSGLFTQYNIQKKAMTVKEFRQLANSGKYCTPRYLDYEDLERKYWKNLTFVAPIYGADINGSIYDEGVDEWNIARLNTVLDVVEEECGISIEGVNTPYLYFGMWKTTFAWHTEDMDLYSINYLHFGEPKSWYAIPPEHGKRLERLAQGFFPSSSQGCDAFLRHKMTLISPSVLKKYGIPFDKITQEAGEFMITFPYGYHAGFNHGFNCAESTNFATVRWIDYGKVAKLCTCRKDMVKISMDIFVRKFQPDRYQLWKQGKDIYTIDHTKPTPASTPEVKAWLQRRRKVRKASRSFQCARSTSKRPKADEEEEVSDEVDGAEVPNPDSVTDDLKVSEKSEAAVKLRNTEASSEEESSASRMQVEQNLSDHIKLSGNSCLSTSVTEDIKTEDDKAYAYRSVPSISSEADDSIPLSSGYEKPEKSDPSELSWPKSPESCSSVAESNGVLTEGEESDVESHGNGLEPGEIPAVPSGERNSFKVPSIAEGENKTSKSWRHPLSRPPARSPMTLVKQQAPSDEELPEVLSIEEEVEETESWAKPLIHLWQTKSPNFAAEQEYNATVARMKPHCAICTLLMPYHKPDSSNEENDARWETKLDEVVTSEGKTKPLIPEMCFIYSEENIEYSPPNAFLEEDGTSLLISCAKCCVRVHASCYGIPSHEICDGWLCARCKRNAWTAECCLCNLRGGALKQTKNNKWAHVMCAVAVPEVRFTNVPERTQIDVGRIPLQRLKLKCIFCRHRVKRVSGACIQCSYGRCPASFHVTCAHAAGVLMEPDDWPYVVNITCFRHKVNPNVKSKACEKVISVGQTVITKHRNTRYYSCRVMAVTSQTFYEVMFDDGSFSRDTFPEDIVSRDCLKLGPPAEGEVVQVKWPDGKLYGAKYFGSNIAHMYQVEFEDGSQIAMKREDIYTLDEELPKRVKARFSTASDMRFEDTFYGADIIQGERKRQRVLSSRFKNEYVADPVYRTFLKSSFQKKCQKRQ
# TEST: Enzymatic Assay: The ability of test compounds to inhibit the activity of JMJD2C was determined in 384-well plate format under the following reaction conditions: 0.3 nM JMJD2C, 300 nM H3K9me3-biotin labeled peptide (Anaspec cat #64360), 2 μM alpha-ketoglutaric acid in assay buffer of 50 mM HEPES, pH7.3, 0.005% Brij35, 0.5 mM TCEP, 0.2 mg/ml BSA, 50 μM sodium L-ascorbate, and 2 μM ammonium iron(II) sulfate. Reaction product was determined quantitatively by TR-FRET after the addition of detection reagent Phycolink Streptavidin-allophycocyanin (Prozyme) and Europium-anti-di-methylated histone H3 lysine 9 (H3K9me2) antibody (PerkinElmer) in the presence of 5 mM EDTA in LANCE detection buffer (PerkinElmer) at a final concentration of 50 nM and 1 nM, respectively.The assay reaction was initiated by the following: 2 μl of the mixture of 900 nM H3K9me3-biotin labeled peptide and 6 μM alpha-ketoglutaric acid with 2 μl of 11-point serial diluted inhibitor in 3% DMSO were added to each well of the plate, followed by the addition of 2 μl of 0.9 nM JMJD2C to initiate the reaction. The reaction mixture was incubated at room temperature for 30 minutes, and terminated by the addition of 6 μl of 5 mM EDTA in LANCE detection buffer containing 100 nM Phycolink Streptavidin-allophycocyanin and 2 nM Europium-anti-H3K9me2 antibody. Plates were read by EnVisionMultilabel Reader in TR-FRET mode (excitation at 320 nm, emission at 615 nm and 665 nm) after 1 hour incubation at room temperature.
ASSAY_METRIC: IC50

{"columns": ["SMILES_INPUT", "RESULT"],
 "data": [
  ["CC1(C)CCN(C(=O)c2cc3nccc(C(=O)O)c3[nH]2)CC1", "< 100 nM"]
]}

Measured values drawn from ChEMBL document CHEMBL5726350 for this set.
